Field: IC50. Provide a value for each of the compounds that follow.
Tested on: Human umbilical vein endothelial cells (HUVEC)
Assay: Inhibition of growth factor-mediated cell proliferation (hFGF-2)
Format: cell-based
Conditions: Homo sapiens, HUVEC, 72 h, 72 h exposure, hFGF-2 stimulated; from averaged pIC50 values
Experimental: Human umbilical vein endothelial cells (HUVEC) were obtained from Cellsystems (FC-0003) and grown in Vasculife VEGF complete medium (Cellsystems, LL-1020) containing 2% fetal bovine serum (FBS) at 37° C. and 5% CO2. The cells were used for proliferation assays up to passage 7. […]
Numbers only, in µM.

Parameters: items (list). Returns: IC50 for each item.
1. COc1cc(C)cc2cc(-c3cc(CN4CCCC(N(C)C)C4)n4ncnc(N)c34)sc12 (stereo not shown) [Example 86]
2. COc1cc(C)cc2cc(-c3cc(CN4CCC[C@H](N)C4)n4ncnc(N)c34)sc12 [Example 56]
3. COc1cc(C)cc2cc(-c3cc(CN[C@H]4CCNC4=O)n4ncnc(N)c34)sc12 [Example 14]
4. COc1cc(C)cc2cc(-c3cc(CN4CCOCC4)n4ncnc(N)c34)sc12 [Example 10]

Reply text:
0.037
0.169
0.032
0.021
